# TESTED SYSTEM: T1, monkey TIM-3 extracellular domain protein with hFc tag (cTIM-3-hFc) (monkey)
# T1 construct: not shown: human IgG Fc fragment (hFc) of the pCpC vector
# T1 chain: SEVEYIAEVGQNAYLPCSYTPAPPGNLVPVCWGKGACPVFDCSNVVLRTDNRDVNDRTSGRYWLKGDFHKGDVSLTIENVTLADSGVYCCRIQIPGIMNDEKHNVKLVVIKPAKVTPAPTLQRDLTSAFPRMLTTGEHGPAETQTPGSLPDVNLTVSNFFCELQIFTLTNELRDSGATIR
# ASSAY PROTOCOL: ELISA, coated monkey TIM-3 ECD protein, 6.6667 nM antibody

{"columns": ["BINDER", "OD450"],
 "data": [
  ["18D2H2 fully human TIM-3 antibody (human IgG4, kappa) (antibody, V domains shown) VH: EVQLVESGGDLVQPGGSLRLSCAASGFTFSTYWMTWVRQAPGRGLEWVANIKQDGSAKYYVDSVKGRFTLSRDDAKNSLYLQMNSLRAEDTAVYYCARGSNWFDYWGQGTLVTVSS VL: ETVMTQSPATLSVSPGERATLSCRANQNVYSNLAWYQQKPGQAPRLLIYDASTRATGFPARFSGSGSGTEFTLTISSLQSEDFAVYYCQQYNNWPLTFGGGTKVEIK", 3.3],
  ["39E5H1 fully human TIM-3 antibody (human IgG4, kappa) (antibody, V domains shown) VH: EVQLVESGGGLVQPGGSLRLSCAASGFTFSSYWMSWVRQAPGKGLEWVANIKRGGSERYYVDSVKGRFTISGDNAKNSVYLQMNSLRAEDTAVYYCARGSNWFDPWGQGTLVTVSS VL: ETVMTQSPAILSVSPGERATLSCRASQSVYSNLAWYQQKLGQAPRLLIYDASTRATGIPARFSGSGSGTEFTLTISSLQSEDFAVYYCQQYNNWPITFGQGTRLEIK", 3.35],
  ["7A4F10 fully human TIM-3 antibody (human IgG4, kappa) (antibody, V domains shown) VH: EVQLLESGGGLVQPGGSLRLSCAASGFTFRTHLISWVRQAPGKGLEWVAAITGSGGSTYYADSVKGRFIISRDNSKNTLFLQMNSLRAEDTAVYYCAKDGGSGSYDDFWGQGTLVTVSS VL: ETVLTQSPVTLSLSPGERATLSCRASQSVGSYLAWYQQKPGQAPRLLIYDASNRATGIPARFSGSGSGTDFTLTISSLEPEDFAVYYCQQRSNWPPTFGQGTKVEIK", 3.12]
]}
